- System: HCV replicon cells
- assay-procedure: Cell-based HCV replicon assay (replicon RNA level by real time PCR, Taqman)
- experimental-context: Hepatitis C virus, 72 h, HCV replicon cells, harvested day 3, replicon RNA by real time PCR; reported as range class; read-out: EC90 (μM) range
measured-property: EC90

Report EC90 for Nc1nc(Cl)c(-c2cc3cc([N+](=O)[O-])cnc3o2)c(N[C@@H]2C[C@H](CO)[C@@H](O)[C@H]2O)n1
0.5 to 5 µM

Report EC90 for CCOc1cc2cc(-c3c(C)nc(Nc4ccccc4)nc3N[C@@H]3C[C@H](CO)[C@@H](O)[C@H]3O)oc2c(C)n1
> 5 µM

Report EC90 for CNC(=O)c1ccc2oc(-c3c(Cl)nc(N)nc3N[C@@H]3C[C@H](CO)[C@@H](O)[C@H]3O)cc2c1
> 5 µM

Report EC90 for CC1(C)O[C@@H]2[C@@H](CO)C[C@@H](Nc3nc(N)nc(Cl)c3-c3nc4c(F)cc(F)cc4s3)[C@@H]2O1
0.5 to 5 µM

Report EC90 for CC(C)OCCNc1nc(Cl)c(-c2nc3ccccc3s2)c(N[C@@H]2C[C@H](CO)[C@@H](O)[C@H]2O)n1
< 0.5 µM

Report EC90 for Nc1nc(Cl)c(-c2nc3c(Cl)cccc3s2)c(N[C@@H]2C[C@H](CO)[C@@H](O)[C@H]2O)n1
0.5 to 5 µM

Report EC90 for Nc1nc(Cl)c(-c2cc3cc(Cl)ccc3o2)c(N[C@@H]2C[C@H](CO)[C@@H](O)[C@H]2O)n1
> 5 µM

====

- Test system: HCV replicon cells
- assay-procedure: Cell-based HCV replicon assay (replicon RNA level by real time PCR, Taqman)
- experimental-context: Hepatitis C virus, 72 h, HCV replicon cells, harvested on day 3, replicon RNA by real time PCR; calculated EC90 reported as range class; read-out: EC90 (μM) range
measured-property: EC90

Give measured EC90 for C[C@H](Nc1nc(Cl)c(-c2nc3ccccc3s2)c(N[C@@H]2C[C@H](CO)[C@@H](O)[C@H]2O)n1)C(F)(F)F (HCV replicon cells).
< 0.5 µM

Give measured EC90 for Cc1nc(NCc2ccc(F)cc2)nc(N[C@@H]2C[C@H](CO)[C@@H](O)[C@H]2O)c1-c1nc2ccccc2s1 (HCV replicon cells).
< 0.5 µM

Give measured EC90 for CN(C)c1nc(Cl)c(-c2cc3ccncc3o2)c(N[C@@H]2C[C@H](CO)[C@@H](O)[C@H]2O)n1 (HCV replicon cells).
0.5 to 5 µM

Give measured EC90 for Cc1nc(NCC2CCCO2)nc(N[C@@H]2C[C@H](CO)[C@@H](O)[C@H]2O)c1-c1nc2ccccc2s1 (some centres unmarked) (HCV replicon cells).
< 0.5 µM

Give measured EC90 for CCOCCNc1nc(C)c(-c2cc3cc(C(F)(F)F)ncc3o2)c(N[C@@H]2C[C@H](CO)[C@H]3OC(C)(C)O[C@H]32)n1 (HCV replicon cells).
> 5 µM

Give measured EC90 for CCc1cc2cc(-c3c(C)nc(NCC(C)C)nc3N[C@@H]3C[C@H](CO)[C@@H](O)[C@H]3O)oc2cn1 (HCV replicon cells).
< 0.5 µM

Give measured EC90 for Cc1nc(NCCNC(=O)NC(C)(C)C)nc(N[C@@H]2C[C@H](CO)[C@@H](O)[C@H]2O)c1-c1nc2ccccc2s1 (HCV replicon cells).
0.5 to 5 µM

Give measured EC90 for COCc1cc2cc(-c3c(C)nc(NCc4nccs4)nc3N[C@@H]3C[C@H](CO)[C@@H](O)[C@H]3O)oc2cn1 (HCV replicon cells).
< 0.5 µM

Give measured EC90 for Cc1cccnc1CNc1nc(C)c(-c2nc3ccccc3s2)c(N[C@@H]2C[C@H](CO)[C@H]3OC(C)(C)O[C@H]32)n1 (HCV replicon cells).
> 5 µM

Give measured EC90 for Cc1nc(NCC2CCCCC2)nc(N[C@@H]2C[C@H](CO)[C@@H](O)[C@H]2O)c1-c1nc2ccccc2s1 (HCV replicon cells).
< 0.5 µM

Give measured EC90 for CCc1cc2cc(-c3c(C)nc(NCc4ccccn4)nc3N[C@@H]3C[C@H](CO)[C@H]4OC(C)(C)O[C@H]43)oc2cn1 (HCV replicon cells).
> 5 µM

Give measured EC90 for CCc1cc2cc(-c3c(C)nc(NCC(F)(F)F)nc3N[C@@H]3C[C@H](CO)[C@@H](O)[C@H]3O)oc2cn1 (HCV replicon cells).
< 0.5 µM

Give measured EC90 for OC[C@H]1C[C@@H](Nc2nc(NCC3CCOCC3)nc(Cl)c2-c2nc3ccccc3s2)[C@H](O)[C@@H]1O (HCV replicon cells).
< 0.5 µM

Give measured EC90 for Cc1csc(CNc2nc(C)c(-c3nc4ccccc4s3)c(N[C@@H]3C[C@H](CO)[C@H]4OC(C)(C)O[C@H]43)n2)c1 (HCV replicon cells).
< 0.5 µM

====

- System: HCV replicon cells
- assay-procedure: Cell-based HCV replicon assay (replicon RNA level by real time PCR, Taqman)
- experimental-context: Hepatitis C virus, 72 h, HCV replicon cells, replicon RNA level by real time PCR, harvested day 3; read-out: EC90 (μM) range
measured-property: EC90

Give measured EC90 for Cc1nc(N[C@H](C)C2CC2)nc(N[C@@H]2CC[C@@H](O)[C@@]2(C)O)c1-c1nc2c(C)nccc2s1 (HCV replicon cells).
< 0.5 µM

Give measured EC90 for CC(=O)OC[C@H]1C[C@@H](Nc2nc(N)nc(C)c2-c2nc3ccccc3s2)[C@H](O)[C@@H]1O (HCV replicon cells).
> 5 µM

Give measured EC90 for Cc1cc(NCC2CC2)nc(N[C@@H]2C[C@H](CO)[C@@H](O)[C@H]2O)c1-c1nc2ccccc2s1 (HCV replicon cells).
> 5 µM

Give measured EC90 for COc1ccc(CCNc2nc(C)c(-c3nc4cnccc4s3)c(N[C@@H]3CC[C@@H](O)[C@@]3(C)O)n2)cc1Cl (HCV replicon cells).
0.5 to 5 µM

Give measured EC90 for CCc1nccc2sc(-c3c(C)nc(NCC(F)(F)F)nc3N[C@@H]3C[C@H](CO)[C@@H](O)[C@H]3O)nc12 (HCV replicon cells).
< 0.5 µM

Give measured EC90 for Cc1nc(NCCc2cccs2)nc(N[C@@H]2C[C@H](CO)[C@@H](O)[C@H]2O)c1-c1nc2cnccc2s1 (HCV replicon cells).
> 5 µM

Give measured EC90 for Cc1nc(CN)nc(N[C@@H]2C[C@H](CO)[C@@H](O)[C@H]2O)c1-c1nc2ccccc2s1 (HCV replicon cells).
> 5 µM

====

- Test system: HCV replicon cells
- assay-procedure: Cell-based HCV replicon assay (replicon RNA level by real time PCR, Taqman)
- experimental-context: Hepatitis C virus, 72 h, HCV replicon cells, harvested on day 3, replicon RNA by real time PCR; calculated EC90 reported as range class; read-out: EC90 (μM) range
- Method: Assays Cell-Based HCV Replicon Assay To measure cell-based anti-HCV activity of the compounds of the present invention, replicon cells were seeded at 5000 cells/well in 96-well collagen I-coated Nunc plates in the presence of the compound of the invention. […] The replicon RNA level was measured using real time PCR (Taqman assay). […]
measured-property: EC90

Give measured EC90 for COc1cc(CNc2nc(C)c(-c3nc4ccccc4s3)c(N[C@@H]3C[C@H](CO)[C@@H](O)[C@H]3O)n2)cc(OC)c1 [Example 701] (HCV replicon cells).
< 0.5 µM

Give measured EC90 for OC[C@H]1C[C@@H](Nc2nc(NCCc3ccccc3)nc(Cl)c2-c2nc3ccccc3s2)[C@H](O)[C@@H]1O [Example 444] (HCV replicon cells).
< 0.5 µM

Give measured EC90 for Cc1nc(NCc2ccc(F)cc2)nc(N[C@@H]2C[C@H](CO)[C@H]3OC(C)(C)O[C@H]32)c1-c1nc2ccccc2s1 [Example 235] (HCV replicon cells).
< 0.5 µM

Give measured EC90 for CCCCCNc1nc(C)c(-c2cc3cc(C)ncc3o2)c(N[C@@H]2C[C@H](CO)[C@@H](O)[C@H]2O)n1 [Example 453] (HCV replicon cells).
< 0.5 µM

Give measured EC90 for Cc1nc(NCc2cccs2)nc(N[C@@H]2C[C@H](CO)[C@H]3OC(C)(C)O[C@H]32)c1-c1nc2ccccc2s1 [Example 328] (HCV replicon cells).
< 0.5 µM

Give measured EC90 for OC[C@H]1C[C@@H](Nc2nc(NCc3ccccc3F)nc(Cl)c2-c2nc3ccccc3s2)[C@H](O)[C@@H]1O [Example 232] (HCV replicon cells).
< 0.5 µM

Give measured EC90 for CCc1cc2cc(-c3c(C)nc(NCc4nccs4)nc3N[C@@H]3C[C@H](CO)[C@H]4OC(C)(C)O[C@H]43)oc2cn1 [Example 341] (HCV replicon cells).
< 0.5 µM

Give measured EC90 for COC[C@H](C)Nc1nc(Cl)c(-c2nc3ccccc3s2)c(N[C@@H]2C[C@H](CO)[C@@H](O)[C@H]2O)n1 [Example 438] (HCV replicon cells).
< 0.5 µM

Give measured EC90 for CCc1cc2cc(-c3c(Cl)nc(NCC(C)C)nc3N[C@@H]3C[C@H](CO)[C@@H](O)[C@H]3O)oc2cn1 [Example 518] (HCV replicon cells).
< 0.5 µM

Give measured EC90 for CCCCNc1nc(Cl)c(-c2nc3ccccc3s2)c(N[C@@H]2C[C@H](CO)[C@@H](O)[C@H]2O)n1 [Example 432] (HCV replicon cells).
< 0.5 µM

Give measured EC90 for CCc1cc2cc(-c3c(Cl)nc(NCC4CC4)nc3N[C@@H]3C[C@H](CO)[C@@H](O)[C@H]3O)oc2cn1 [Example 503] (HCV replicon cells).
< 0.5 µM

Give measured EC90 for CCOCCNc1nc(C)c(-c2cc3cc(CC)ncc3o2)c(N[C@@H]2C[C@H](CO)[C@@H](O)[C@H]2O)n1 [Example 515] (HCV replicon cells).
< 0.5 µM

Give measured EC90 for Cc1ccc(CNc2nc(C)c(-c3nc4ccccc4s3)c(N[C@@H]3C[C@H](CO)[C@H]4OC(C)(C)O[C@H]43)n2)cc1 [Example 489] (HCV replicon cells).
0.5 to 5 µM

Give measured EC90 for Cc1nc(NCCNS(C)(=O)=O)nc(N[C@@H]2C[C@H](CO)[C@@H](O)[C@H]2O)c1-c1nc2ccccc2s1 [Example 258] (HCV replicon cells).
0.5 to 5 µM

Give measured EC90 for Cc1ccc(CNc2nc(C)c(-c3nc4ccccc4s3)c(N[C@@H]3C[C@H](CO)[C@@H](O)[C@H]3O)n2)cc1 [Example 490] (HCV replicon cells).
< 0.5 µM

Give measured EC90 for Cc1nc(NCc2nccs2)nc(N[C@@H]2C[C@H](CO)[C@@H](O)[C@H]2O)c1-c1nc2ccccc2s1 [Example 474] (HCV replicon cells).
< 0.5 µM

Give measured EC90 for OC[C@H]1C[C@@H](Nc2nc(NCc3ccc(F)cc3)nc(Cl)c2-c2nc3ccccc3s2)[C@H](O)[C@@H]1O [Example 251] (HCV replicon cells).
< 0.5 µM

Give measured EC90 for COc1cc(CNc2nc(C)c(-c3cc4cc(OC)nc(C)c4o3)c(N[C@@H]3C[C@H](CO)[C@H]4OC(C)(C)O[C@H]43)n2)cc(OC)c1 [Example 347] (HCV replicon cells).
< 0.5 µM

Give measured EC90 for C[C@H](Nc1nc(Cl)c(-c2nc3ccccc3s2)c(N[C@@H]2C[C@H](CO)[C@@H](O)[C@H]2O)n1)c1ccccc1 [Example 440] (HCV replicon cells).
0.5 to 5 µM

Give measured EC90 for Cc1cccc(CNc2nc(C)c(-c3nc4ccccc4s3)c(N[C@@H]3C[C@H](CO)[C@@H](O)[C@H]3O)n2)c1 [Example 486] (HCV replicon cells).
< 0.5 µM

Give measured EC90 for COCc1cc2cc(-c3c(C)nc(NCc4nccs4)nc3N[C@@H]3C[C@H](CO)[C@H]4OC(C)(C)O[C@H]43)oc2cn1 [Example 339] (HCV replicon cells).
< 0.5 µM

Give measured EC90 for Cc1nc(NCc2cccs2)nc(N[C@@H]2CCC[C@H]2O)c1-c1nc2ccccc2s1 (racemic) [Example 333] (HCV replicon cells).
< 0.5 µM

Give measured EC90 for COc1cc(CNc2nc(C)c(-c3nc4ccccc4s3)c(N[C@@H]3C[C@H](CO)[C@H]4OC(C)(C)O[C@H]43)n2)cc(OC)c1 [Example 500] (HCV replicon cells).
< 0.5 µM

Give measured EC90 for Cc1cc2cc(-c3c(Cl)nc(NCC4CCOCC4)nc3N[C@@H]3C[C@H](CO)[C@@H](O)[C@H]3O)oc2c(C)n1 [Example 458] (HCV replicon cells).
< 0.5 µM

Give measured EC90 for COCc1cc2cc(-c3c(C)nc(NCC(C)(C)C)nc3N[C@@H]3C[C@H](CO)[C@@H](O)[C@H]3O)oc2cn1 [Example 715] (HCV replicon cells).
< 0.5 µM

Give measured EC90 for Cc1nc(NCc2ccccn2)nc(N[C@@H]2C[C@H](CO)[C@@H](O)[C@H]2O)c1-c1nc2ccccc2s1 [Example 465] (HCV replicon cells).
< 0.5 µM

Give measured EC90 for Cc1nc(CNc2nc(C)c(-c3nc4ccccc4s3)c(N[C@@H]3C[C@H](CO)[C@@H](O)[C@H]3O)n2)cs1 [Example 495] (HCV replicon cells).
< 0.5 µM
